Entries and their measured max response, negative = inhibition follow.
# TARGET_ENTITY: Cruzipain (Trypanosoma cruzi) (UniProt P25779)
# Sequence (P25779 123-467 limits assumed): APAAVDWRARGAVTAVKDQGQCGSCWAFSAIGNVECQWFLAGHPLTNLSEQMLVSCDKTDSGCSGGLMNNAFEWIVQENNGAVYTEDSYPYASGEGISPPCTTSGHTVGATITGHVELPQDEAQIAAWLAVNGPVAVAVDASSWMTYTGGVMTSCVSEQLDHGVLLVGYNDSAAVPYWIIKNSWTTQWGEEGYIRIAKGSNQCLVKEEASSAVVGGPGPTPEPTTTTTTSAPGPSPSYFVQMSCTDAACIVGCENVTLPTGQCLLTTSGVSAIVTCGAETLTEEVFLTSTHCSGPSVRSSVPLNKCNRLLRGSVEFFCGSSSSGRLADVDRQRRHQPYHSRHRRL
# METHOD_SUMMARY: qHTS Assay for Promiscuous and Specific Inhibitors of Cruzain (without detergent);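 further: plate controls were enzyme without inhibitor for no effect and buffer without enzyme for full effect; nearly all actives have a fitted effect of over 40% in size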
# CONDITIONS: purified cruzain, Z-FR-AMC fluorescence, no detergent
In all, about 200,000 compounds went through this assay and about 4,500 (2.2%) were called active. Inconclusive results (about 12%) are left out. The entries come from a sample that favours actives as a whole.
METRIC_NAME: max response, negative = inhibition (%)

- COc1cc(C(=O)NCC(c2ccc(Cl)cc2)N2CCOCC2)cc(OC)c1OC (configuration not stated): 9.67
- O=C(c1ccc2c(c1)N(Cc1ccccc1)C(=O)c1ccccc1S2(=O)=O)N1CCC(Cc2ccccc2)CC1: 1.2
- CCCOC(=O)c1cc2ccccc2oc1=O: -4.88
- N#C/C(=C1\CCCN1)c1nc(-c2ccccc2)cs1: -17.6
- O=C(CCn1c(SCC(=O)c2ccccc2)nc2ccccc2c1=O)NCc1ccc(F)cc1: -24.2
- Cc1cccc(C(=O)Nc2ccc(-c3nc4ncccc4o3)cc2C)c1: -6.61
- Cc1ccccc1-n1c(=O)c2ccccc2n(Cc2ccc(F)cc2)c1=O: 6.2
- O=C(Nn1c(-c2ccccc2)nc2ccccc2c1=O)c1ccc([N+](=O)[O-])cc1: 8.42
- Cc1[nH]c2ccccc2c1C(c1ccccc1)c1cccs1 (configuration not stated): 3.04
- Cc1c(C(=O)N2CCCC2)oc2c1-c1nn(CC(=O)NCc3ccc(OC(C)C)cc3)cc1CC2: 21.1
- COc1ccccc1NC(=O)c1oc2ccccc2c1NC(=O)C(C)C: -10.9
- CCCCN(CC)CCCNC(=O)c1nn(C)c2c1CS(=O)(=O)c1ccccc1-2: 5.31
